# test description: NCI Yeast Anticancer Drug Screen. Data for the sgs1 mgt1 strain (AID 161);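 also: 0% = growth of cultures given vehicle only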
# condition: S. cerevisiae sgs1 mgt1 strain, active compounds read high; at 50.0 µM unless noted
# Experimental: Growth inhibition of yeast strains with defined genetic alterations is measured as a screen for potential anti-cancer activity. Selected strains with alterations in DNA damage repair or cell cycle control were exposed to compounds and growth inhibition was measured relative to vehicle treated controls. The strain used in this assay is sgs1 mgt1
The panel holds about 79,000 compounds, 15% with a hit somewhere; the sample as a whole holds those more often.
property measured: growth inhibition (%)
Only the number, expressed in %, is required.

INSERT INTO measurements (compound, property_measured, meas_value) VALUES
  ('COC(=O)CC1(C(=O)OC)NC(=O)c2cc(OC)c(Cl)cc2N1 (stereo unspecified)', 'growth inhibition', -7.1),
  ('CC(C)/C(Cl)=N/OC(=O)Nc1ccc(F)c(Cl)c1', 'growth inhibition', 89.3),
  ('CC1(C)C=C(C(c2cccc([N+](=O)[O-])c2)N2CCCCC2)C(=O)c2ccccc21 (stereo unspecified)', 'growth inhibition', -13.2),
  ('N#CCCC1(CCC#N)CCCC(CCC#N)(CCC#N)C1=O', 'growth inhibition', 2.15),
  ('O=C(NCCOC(=O)OCCNC(=O)NC1CCCCC1)NC1CCCCC1', 'growth inhibition', 0.9);

Now for another entry.
q: Please indicate growth inhibition recorded for N#CC(C(=O)/C(=N/Nc1nc(=S)[nH]n1N)C(C#N)c1ccccc1)c1ccccc1 (stereo unspecified)
a: -30.8

###

# test description: NCI Yeast Anticancer Drug Screen. Data for the mec2-1 strain (AID 157)
# condition: S. cerevisiae mec2-1 strain, active compounds read high; at 50.0 µM unless noted
About 79,000 compounds went through this panel and 15% of them were active in at least one assay; those are over-represented in the sample as a whole.
# key: entry, value: growth inhibition
# number only, unit % dropped from output

Completed entries (count: 10):
INSERT INTO assay_data (molecule, meas_value) VALUES
  ('CN(C)c1ccc(C(=O)Cc2ccc3ccccc3n2)cc1', 99.2),
  ('Cc1ccc2nc(=O)c3cccnc3n2c1', 31.1),
  ('C/C(=C\CNc1nc(Cl)nc2nc[nH]c12)CO', -5.6),
  ('O=C1NC(=S)N/C1=C\c1ccc(Cl)cc1', -4.8),
  ('ClC1CCC[N-]C1.ClC1CCC[N-]C1.[Cl][Pt+2][Cl] (stereo unspecified)', 4.95),
  ('COc1cccc(NC(=O)NCCCl)c1OC', 11.8),
  ('COC(=O)c1[nH]nc(-c2ccccc2)c1N', 2.95),
  ('Cc1ccc(NC(=O)Oc2ccc(C#N)cc2)c(C)c1', -22.8),
  ('CCCOCC[N+](C)(C)C', -21.9),
  ('O=C(O)/C=C1\NC(=O)NC1=O', -5.1);

q: Report measured growth inhibition; entry is `Cn1cnc2nc(Cl)nc(N)c21`
a: -4.15

q: Provide growth inhibition value for the following molecule: `COc1cc2c(cc1OC)C(=O)/C(=C/c1cc(OC)c(OC)c(OC)c1)C2`
a: -35.5

q: Tell us which growth inhibition value is on record for `O=S=Nc1c(Cl)cc(Cl)cc1Cl`
a: -20.1

q: Given the molecule `CO/N=C1/OC(=O)OCC1(c1ccccc1)c1ccccc1` , write its reported growth inhibition.
a: -3.4

q: Let me know recorded growth inhibition for `O=Cc1cccc2ccc3cccc(C(=O)Cl)c3c12` , thanks.
a: 46.9

q: Look up and state reported growth inhibition for `CN(C)CC=C(c1ccccc1)c1ccccc1`
a: -16.4

q: Look up and report measured growth inhibition for this entry: `CCOC(=O)c1ccc(N=Cc2ccc(N(CCC#N)CCC#N)cc2)cc1`
a: 1.65

q: Read the entry `COc1ccc([N+](=O)[O-])cc1N(C)C` and write its reported growth inhibition.
a: 17.4

q: For the molecule `FC(F)(F)c1ccc(C2=CCCCC2)cc1` , report growth inhibition.
a: 6.45

q: Output growth inhibition of CCN(CC(COc1ccc2c(c1)[n+]([O-])nc(N)[n+]2[O-])OC(C)=O)C(C)=O (stereo unspecified)
a: 38.3

###

# test description: NCI Yeast Anticancer Drug Screen. Data for the sgs1 mgt1 strain (AID 161);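 also: 0% = growth of cultures given vehicle only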
# condition: S. cerevisiae sgs1 mgt1 strain; at 50.0 µM unless noted
This is part of a sample that, as a whole, favours compounds with a hit. Of some 79,000 tested, about 15% had one in any assay. Calls of active or inactive are those of the source. No stated cut-off is given here; in the data, active means growth inhibition above about 70%; inactive means the rest.
Select the matching outcome among active, inactive

Record excerpt, results attached:
INSERT INTO measurements (compound, category_label) VALUES
  ('O=c1c2cc(Cl)ccc2c2ccc(Cl)cc2c(=O)n1-c1ccc2c(c1)Cc1ccccc1-2', 'inactive'),
  ('CCNc1ncnc2ncn(C)c12', 'inactive'),
  ('NC1=CN(CCCO)C2=N/C(=C\c3ccccc3)C(=O)N12', 'inactive'),
  ('Cc1ccc2c(ccc3nc(N)nc(N)c32)c1', 'inactive');

q: Any idea what this test logged for `CCCC(=O)n1ccc2ccccc21` ?
a: inactive

q: Please let me know the test result on file for CCCCC1(CC)COC(C)(CC)OC1 (stereo not given) .
a: inactive

q: Which result was noted for this compound in the test: `COc1ccc2oc(=N)c(C(=O)Nc3ccccc3)cc2c1`
a: inactive

q: # outcome recorded in this test, key = `Cc1ccc(C)c(N=Nc2c(C)nc(N)nc2C)c1`
a: inactive

q: State the result this test recorded for `O=C(Nc1ccc(S(=O)(=O)c2ccc(F)cc2)cc1)OC1CCCCC1` .
a: inactive

q: Please let me know the test result on file for CCC(Cl)COP(=O)(OCC(Cl)CC)O/C(C)=C(\C)OP(=O)(OCC(Cl)CC)OCC(Cl)CC (stereo not given) .
a: inactive

q: Can you look up the reported call for `S=c1nc[nH]c2c1ncn2Cc1ccco1` for me?
a: inactive

q: # fetch the recorded call for `Cc1ccc(C(C)C)c(Oc2cc(C)ccc2C(C)C)c1` here
a: inactive

q: Which outcome was assigned to CC1C=NNC1=O (stereo not given) in this test?
a: inactive

q: # fetch the recorded call for C=C1C(=O)OC2/C=C(\COC(C)=O)CCC(OC(C)=O)C3=CC(OC3=O)C12 (stereo not given) here
a: inactive

q: Entry `COc1ccc(N2C(=O)c3c(c4[nH]c5ccc(OC)cc5c4c4ccc(C(C)(C)C)cc34)C2=O)cc1` : call = ?
a: inactive

q: // return assay outcome for `CCOC(=O)/C(C#N)=C/c1ccccc1Cl`
a: inactive

q: Hey, what did the test say about `CCOc1ccc2c(c1)S(=O)(=O)OC2=O` ?
a: inactive

q: Outcome logged for `Nc1ccc(C(=O)N/N=C/c2ccccc2O)cc1` in this assay:
a: inactive

q: Which outcome did this test record for the compound CC(=O)N1C(Nc2cnc3ccccc3c2)CCN1c1ccccc1 (stereo not given) ?
a: inactive

###

# test description: NCI Yeast Anticancer Drug Screen. Data for the mec2-1 strain (AID 157)
# condition: S. cerevisiae mec2-1 strain, active compounds read high; at 50.0 µM unless noted
Compounds without any hit were thinned out: in the full panel of roughly 79,000, 15% have a hit.
property measured: growth inhibition (%)
// return numeric value only (unit: %, not printed)

INSERT INTO measurements (smiles_text, property_measured, result_unit, meas_value) VALUES
  ('O=C(O)CCN(CCCCN(CCC(=O)O)CCC(=O)O)CCC(=O)O', 'growth inhibition', '%', 7.05),
  ('COc1cc(OC)cc(C(=O)CC(=O)c2cc(OC)cc(OC)c2)c1', 'growth inhibition', '%', -38.3),
  ('O=C(O)CCCCC1CCCCC1', 'growth inhibition', '%', 17.1),
  ('COc1ccccc1OC(=O)c1ccccc1', 'growth inhibition', '%', 7.4),
  ('O=C1OC(/C=C/c2ccccc2)=NC/1=C\c1ccc2c(c1)OCO2', 'growth inhibition', '%', 18.9);

// moving on: another record for growth inhibition
q: Look up and report measured growth inhibition for this entry: `CCc1ccc2c(-c3ccccc3)c3c(-c4ccccc4)c4ccccc4c(-c4ccccc4)c3c(-c3ccccc3)c2c1`
a: 7.3

###

# test description: NCI Yeast Anticancer Drug Screen. Data for the mlh1 rad18 strain (AID 175)
# condition: S. cerevisiae mlh1 rad18 strain growth inhibition, active compounds read high; at 50.0 µM unless noted
About 79,000 compounds went through this panel and 15% of them were active in at least one assay; those are over-represented in the sample as a whole.
Listed compounds paired with reported growth inhibition
Number only, in %; omit the unit.

q: Please give measured growth inhibition of the following entry: `COC(=O)c1ccccc1NC(=O)Nc1ncccn1`
a: -11.5

###

# test description: NCI Yeast Anticancer Drug Screen. Data for the cln2 rad14 strain (AID 165);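 also: 0% = growth equal to vehicle treated cultures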
# condition: S. cerevisiae cln2 rad14 strain; at 50.0 µM unless noted
Compounds without any hit were thinned out: in the full panel of roughly 79,000, 15% have a hit. Activity calls are given as the source filed them. Cut-off read from the data, not from the text of the source: active = growth inhibition above about 70%; inactive = the rest.
Answer with one of the outcomes given here: yes for active, no for inactive

Reference set, count: 8
INSERT INTO results (molecule, category_label) VALUES
  ('CC(O)C(C(=O)O)N(CC1(O)OCC(O)C(O)C1O)N=O (stereo not drawn)', 'no'),
  ('COC(=O)/C(=C(\C)NC(C)=O)c1c(C(=O)OC)[nH]c2ccccc12', 'no'),
  ('CC1(C)OC(CI)C(COS(C)(=O)=O)O1 (stereo not drawn)', 'no'),
  ('COc1ccc2oc3cc(Cl)ccc3c(=O)c2c1', 'no'),
  ('COc1ccc2cc(N3CCCC3)ccc2c1', 'no'),
  ('C/C(=N\NC(=S)N1CCC(N2CCCCC2)CC1)c1ccccn1', 'yes'),
  ('C=C(COc1ccc(OC)cc1)C(C)(C)C', 'no'),
  ('Cc1cc(C)nc(NS(=O)(=O)c2ccc(NC(=O)NC(F)(F)F)cc2)n1', 'no');

q: Test call for this molecule, please: `CC(C)N(C(=O)c1ccccc1O)C(C)C`
a: no

q: // return assay outcome for CC1CCC(C(=O)O)(C(Br)C(=O)O)CC1 (stereo not drawn)
a: no

q: # outcome recorded in this test, key = `C/C(=C\CNc1ncnc2c1ncn2CCC#N)CO`
a: no

q: Per the records of this test, what outcome belongs to `O=C(CC1=Nc2nnc(-c3nnc4n3C(=O)C(CC(=O)c3cccnc3)=N4)n2C1=O)c1cccnc1` ?
a: no

q: // param item: `OCCNc1cccc2ccccc12` ; yields the recorded call
a: no
